Attribution: PubChem BioAssay AID623921

# Target Or System: RecBCD enzyme subunit RecC (Escherichia coli (strain K12)) + RecBCD enzyme subunit RecB (Escherichia coli (strain K12)) (UniProt P07648+P08394)
# Sequence (P07648 whole entry, looked up): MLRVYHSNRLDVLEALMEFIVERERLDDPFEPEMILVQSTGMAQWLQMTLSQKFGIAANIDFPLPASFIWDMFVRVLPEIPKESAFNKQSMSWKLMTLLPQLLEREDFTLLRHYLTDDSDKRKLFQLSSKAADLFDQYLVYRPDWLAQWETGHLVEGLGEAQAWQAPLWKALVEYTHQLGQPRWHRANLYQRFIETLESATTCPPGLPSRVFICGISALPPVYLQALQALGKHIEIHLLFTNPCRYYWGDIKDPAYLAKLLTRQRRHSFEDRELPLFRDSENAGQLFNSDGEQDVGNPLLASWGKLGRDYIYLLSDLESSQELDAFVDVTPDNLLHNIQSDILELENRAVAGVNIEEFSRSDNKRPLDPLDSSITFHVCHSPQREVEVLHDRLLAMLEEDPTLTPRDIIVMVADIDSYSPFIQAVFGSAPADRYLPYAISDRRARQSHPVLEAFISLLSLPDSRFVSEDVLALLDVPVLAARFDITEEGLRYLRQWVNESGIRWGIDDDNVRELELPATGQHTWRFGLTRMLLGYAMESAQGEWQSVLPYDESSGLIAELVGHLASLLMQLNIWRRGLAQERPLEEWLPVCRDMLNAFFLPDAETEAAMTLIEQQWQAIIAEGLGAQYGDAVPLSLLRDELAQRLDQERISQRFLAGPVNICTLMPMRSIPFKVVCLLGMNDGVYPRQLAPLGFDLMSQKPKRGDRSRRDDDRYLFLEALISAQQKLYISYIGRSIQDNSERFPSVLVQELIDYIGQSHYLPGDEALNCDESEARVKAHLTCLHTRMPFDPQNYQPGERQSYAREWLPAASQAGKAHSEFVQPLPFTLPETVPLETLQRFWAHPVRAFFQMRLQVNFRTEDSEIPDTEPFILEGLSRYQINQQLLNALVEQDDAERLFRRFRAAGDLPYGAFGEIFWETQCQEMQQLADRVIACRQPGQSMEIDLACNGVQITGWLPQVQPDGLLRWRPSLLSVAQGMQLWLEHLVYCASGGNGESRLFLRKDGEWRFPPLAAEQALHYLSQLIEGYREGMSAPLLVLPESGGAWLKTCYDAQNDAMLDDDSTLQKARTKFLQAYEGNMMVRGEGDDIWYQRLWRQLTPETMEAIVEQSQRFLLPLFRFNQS
# Sequence (P08394 whole entry, looked up): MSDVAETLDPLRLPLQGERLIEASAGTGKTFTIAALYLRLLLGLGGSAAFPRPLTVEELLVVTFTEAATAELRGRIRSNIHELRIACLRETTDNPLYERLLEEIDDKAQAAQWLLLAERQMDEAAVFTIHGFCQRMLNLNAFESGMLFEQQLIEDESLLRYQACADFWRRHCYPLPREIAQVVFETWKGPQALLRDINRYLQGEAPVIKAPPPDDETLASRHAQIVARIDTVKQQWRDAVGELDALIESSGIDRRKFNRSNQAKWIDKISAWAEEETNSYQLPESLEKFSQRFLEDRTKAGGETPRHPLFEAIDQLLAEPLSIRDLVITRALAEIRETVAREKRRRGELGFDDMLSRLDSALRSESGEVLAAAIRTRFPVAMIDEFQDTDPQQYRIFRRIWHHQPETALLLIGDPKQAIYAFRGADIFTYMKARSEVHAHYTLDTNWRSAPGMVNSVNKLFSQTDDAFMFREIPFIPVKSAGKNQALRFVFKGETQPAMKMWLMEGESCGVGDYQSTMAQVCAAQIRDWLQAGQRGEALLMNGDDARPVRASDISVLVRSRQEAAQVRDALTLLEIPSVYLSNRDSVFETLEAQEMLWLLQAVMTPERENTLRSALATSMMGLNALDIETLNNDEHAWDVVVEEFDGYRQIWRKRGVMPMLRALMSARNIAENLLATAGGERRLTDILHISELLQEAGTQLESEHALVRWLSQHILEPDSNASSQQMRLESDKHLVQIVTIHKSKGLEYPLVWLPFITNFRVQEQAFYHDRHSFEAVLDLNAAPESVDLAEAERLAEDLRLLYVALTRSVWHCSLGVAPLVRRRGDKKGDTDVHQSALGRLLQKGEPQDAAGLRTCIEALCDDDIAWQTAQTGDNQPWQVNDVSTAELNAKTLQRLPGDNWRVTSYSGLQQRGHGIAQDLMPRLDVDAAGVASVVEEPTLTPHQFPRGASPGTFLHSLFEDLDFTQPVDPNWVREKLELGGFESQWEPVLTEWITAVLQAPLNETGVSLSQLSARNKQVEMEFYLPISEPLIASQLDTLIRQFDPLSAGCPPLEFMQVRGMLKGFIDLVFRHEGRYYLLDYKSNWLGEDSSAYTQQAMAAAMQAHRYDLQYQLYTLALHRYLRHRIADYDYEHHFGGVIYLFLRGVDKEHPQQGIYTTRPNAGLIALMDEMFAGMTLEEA
# Test: RecBCD dsDNA exonuclease activity remaining – biochemical, radioactivity readout, 100 µM single dose, counter-screen for AddAB inhibitor project, late-stage follow-up (AID 623921)
# Recorded Conditions: purified RecBCD, [3H] dsDNA nuclease, TCA-soluble radioactivity; at 100 µM
The source made the active and inactive calls.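 The calls were made as follows: active = remaining nuclease activity at or below 52% of the solvent-only control; inactive = the rest.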
Pick one and only one: y = active, n = inactive

Would you please look over these solved cases?
> print(dat)
                                   compound  group
1  CCn1cc(C(=O)O)c(=O)c2cnc(N3CCN(C(=S)NCc4ccccc4)CC3)nc21      y
2  CCC(C)(C)C1CCc2c(sc(NC(=O)c3cnccn3)c2C#N)C1 (stereo unspecified)      n
3  CCn1cc(C(=O)O)c(=O)c2cnc(N3CCN(C(=S)Nc4ccccc4C(F)(F)F)CC3)nc21      y
4       Cc1ccc(C(=O)Nc2sc3c(c2C#N)CCCCC3)o1      n

Which outcome was entered for the compound N#Cc1c(NC(=O)c2cccc(F)c2)sc2c1CCCC2 in this test?
n

Which outcome was entered for the compound N#Cc1c(NC(=O)c2cc(-c3ccccc3)on2)sc2c1CCCC2 in this test?
y

Which outcome was entered for the compound COC(=O)c1c(NC(=O)c2cnccn2)sc2c1CCCC2 in this test?
n

Which outcome was entered for the compound N#Cc1c(NC(=O)C2CC=CCC2C(=O)O)sc2c1CCC2 (stereo unspecified) in this test?
n

Which outcome was entered for the compound CCn1cc(C(=O)O)c(=O)c2cnc(N3CCN(C(=S)Nc4ccccc4)CC3)nc21 in this test?
y

Which outcome was entered for the compound Cn1nccc1C(=O)Nc1sc2c(c1C#N)CCCC2 in this test?
n

Which outcome was entered for the compound CCn1cc(C(=O)O)c(=O)c2cnc(N3CCN(C(=S)NC(=O)c4cccnc4)CC3)nc21 in this test?
y
